Taken from patent US10040781B2.

biological target: TBK1 (Homo sapiens (Human)); assay: TBK1 TR-FRET enzymatic assay
Measured pIC50 by item
Scale: negative log10 of molar concentration, which is what pIC50 denotes.

1. C[C@H]1CN(C2COC2)CCN1c1ccc(Nc2ncnc(-c3ccc(O[C@H]4CCN(C(=O)CC#N)C[C@H]4F)c(C#N)c3)n2)cc1 [Example 250] :: 8.52
2. C[C@@H]1C[C@@H](O)CN1c1ccc(-c2ncnc(Nc3ccc(N4CCN(C5COC5)CC4)cc3)n2)cc1C#N [Example 204] :: 9.00
3. C[C@H](O)C(=O)N1CC[C@H](Oc2ccc(-c3ncnc(Nc4ccc(N5CCN(CCO)CC5)cc4)n3)cc2C#N)[C@H](F)C1 [Example 583] :: 8.70
4. N#Cc1cc(-c2ncnc(Nc3ccc(N4CCN(C5COC5)CC4)cc3)n2)ccc1O[C@H]1CCN(C(=O)c2ccnnc2)C[C@H]1F [Example 338] :: 8.05
5. N#Cc1cc(-c2ncnc(Nc3cc(F)c(N4CCN(C5COC5)CC4)c(F)c3)n2)ccc1OC1CCOCC1 [Example 74] :: 8.52

For reference, reported pIC50 for N#Cc1cc(-c2ncnc(Nc3ccc(N4CCN(C5COC5)CC4)cc3)n2)ccc1OC1CCNCC1(F)F (racemic) [Example 148] stands at 8.52

For reference, reported pIC50 for C[C@H](O)C(=O)N1CC[C@H](Oc2ccc(-c3ncnc(Nc4ccc(N5CC6COCC6C5)cc4)n3)cc2C#N)[C@H](F)C1 (stereo partly shown) [Example 317] stands at 8.70

For reference, reported pIC50 for N#Cc1cc(-c2ncnc(Nc3ccc(N4CCN(C5COC5)CC4)cc3)n2)ccc1O[C@@H]1CCN(C(=O)c2nc(=O)[nH][nH]2)C1 [Example 435] stands at 6.39

For reference, reported pIC50 for N#Cc1cc(-c2ncnc(Nc3ccc(C4CCNCC4)cc3)n2)ccc1O[C@H]1CCCC[C@H]1F (racemic) [Example 292] stands at 8.22

For reference, reported pIC50 for N#Cc1cc(-c2ncnc(Nc3cnn(CCO)c3)n2)ccc1O[C@H]1CCN(C(=O)CO)C[C@H]1F [Example 506] stands at 8.52

---

biological target: TBK1 (Homo sapiens (Human), UniProt Q9UHD2); test: TBK1 TR-FRET enzymatic assay
Sequence (Q9UHD2 whole entry): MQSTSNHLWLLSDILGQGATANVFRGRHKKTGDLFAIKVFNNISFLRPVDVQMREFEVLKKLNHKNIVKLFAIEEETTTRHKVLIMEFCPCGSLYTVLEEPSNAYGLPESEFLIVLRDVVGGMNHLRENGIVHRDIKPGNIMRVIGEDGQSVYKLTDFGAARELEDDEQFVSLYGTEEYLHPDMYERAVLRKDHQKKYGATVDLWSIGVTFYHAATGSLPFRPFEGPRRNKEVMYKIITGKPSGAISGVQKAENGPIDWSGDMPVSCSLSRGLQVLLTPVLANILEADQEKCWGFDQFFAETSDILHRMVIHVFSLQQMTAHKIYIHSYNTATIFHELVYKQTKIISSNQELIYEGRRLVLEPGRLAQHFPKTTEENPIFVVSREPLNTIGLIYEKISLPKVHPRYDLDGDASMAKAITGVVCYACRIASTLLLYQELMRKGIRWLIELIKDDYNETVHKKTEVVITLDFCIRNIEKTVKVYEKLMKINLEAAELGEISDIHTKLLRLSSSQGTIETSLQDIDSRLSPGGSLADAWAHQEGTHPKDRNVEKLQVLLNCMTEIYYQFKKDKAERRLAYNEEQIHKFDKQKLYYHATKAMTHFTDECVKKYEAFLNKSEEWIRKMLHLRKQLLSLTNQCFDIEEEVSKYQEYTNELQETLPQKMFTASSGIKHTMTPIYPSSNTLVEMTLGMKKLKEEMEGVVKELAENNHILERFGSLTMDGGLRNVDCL
Measured pIC50 by item
Scale: negative log10 of molar concentration, which is what pIC50 denotes.

Below, 5 molecules whose answers are already recorded.
1. N#Cc1cc(-c2ncnc(Nc3ccc(N4CCN(C5COC5)CC4)cc3)n2)ccc1O[C@H]1CCN(c2cccnc2)C[C@H]1F :: 6.00
2. C[C@H]1CN(C2COC2)CCN1c1ccc(Nc2ncnc(-c3ccc(O[C@H]4CCN(C(=O)c5cnc[nH]5)C[C@H]4F)c(C#N)c3)n2)cc1 :: 8.52
3. C[C@H](O)C(=O)N1CC[C@@H](Oc2ccc(-c3ncnc(Nc4ccc(N5CCN(C6COC6)CC5)cc4)n3)cc2C#N)C(F)(F)C1 (single isomer, unassigned) :: 7.80
4. CC(C#N)C(=O)N1CC[C@H](Oc2ccc(-c3ncnc(Nc4ccc(N5CCN(C6COC6)CC5)cc4)n3)cc2C#N)[C@H](F)C1 (some centres unmarked) :: 7.96
5. N#Cc1cc(-c2ncnc(Nc3ccc(N4CCN(C5COC5)CC4)cc3)n2)ccc1O[C@H]1CCN(C2CCOC2)C[C@H]1F (some centres unmarked) :: 6.61

For reference, reported pIC50 for "N#Cc1cc(-c2ncnc(Nc3ccc(N4CCN(C5COC5)CC4)cc3)n2)ccc1O[C@H]1CCN(C(=O)c2cn(CCO)nn2)C[C@H]1F" stands at 8.30

For reference, reported pIC50 for "N#CCC(=O)Nc1ccc(-c2ncnc(Nc3ccc(N4CCN(C5COC5)CC4)cc3)n2)cc1C#N" stands at 7.72

For reference, reported pIC50 for CC1(C)CN(C(=O)CO)C[C@@H](F)[C@H]1Oc1ccc(-c2ncnc(Nc3ccc(N4CCN(C5COC5)CC4)cc3)n2)cc1C#N (single isomer, unassigned) stands at 8.10

---

Measured pIC50 by item
target: hJAK2 (Homo sapiens (Human)); test: hJAK2 LANCE TR-FRET enzymatic assay; assay type: biochemical; settings: read-out: JAK2 IC50
Sequence (O60674 whole entry): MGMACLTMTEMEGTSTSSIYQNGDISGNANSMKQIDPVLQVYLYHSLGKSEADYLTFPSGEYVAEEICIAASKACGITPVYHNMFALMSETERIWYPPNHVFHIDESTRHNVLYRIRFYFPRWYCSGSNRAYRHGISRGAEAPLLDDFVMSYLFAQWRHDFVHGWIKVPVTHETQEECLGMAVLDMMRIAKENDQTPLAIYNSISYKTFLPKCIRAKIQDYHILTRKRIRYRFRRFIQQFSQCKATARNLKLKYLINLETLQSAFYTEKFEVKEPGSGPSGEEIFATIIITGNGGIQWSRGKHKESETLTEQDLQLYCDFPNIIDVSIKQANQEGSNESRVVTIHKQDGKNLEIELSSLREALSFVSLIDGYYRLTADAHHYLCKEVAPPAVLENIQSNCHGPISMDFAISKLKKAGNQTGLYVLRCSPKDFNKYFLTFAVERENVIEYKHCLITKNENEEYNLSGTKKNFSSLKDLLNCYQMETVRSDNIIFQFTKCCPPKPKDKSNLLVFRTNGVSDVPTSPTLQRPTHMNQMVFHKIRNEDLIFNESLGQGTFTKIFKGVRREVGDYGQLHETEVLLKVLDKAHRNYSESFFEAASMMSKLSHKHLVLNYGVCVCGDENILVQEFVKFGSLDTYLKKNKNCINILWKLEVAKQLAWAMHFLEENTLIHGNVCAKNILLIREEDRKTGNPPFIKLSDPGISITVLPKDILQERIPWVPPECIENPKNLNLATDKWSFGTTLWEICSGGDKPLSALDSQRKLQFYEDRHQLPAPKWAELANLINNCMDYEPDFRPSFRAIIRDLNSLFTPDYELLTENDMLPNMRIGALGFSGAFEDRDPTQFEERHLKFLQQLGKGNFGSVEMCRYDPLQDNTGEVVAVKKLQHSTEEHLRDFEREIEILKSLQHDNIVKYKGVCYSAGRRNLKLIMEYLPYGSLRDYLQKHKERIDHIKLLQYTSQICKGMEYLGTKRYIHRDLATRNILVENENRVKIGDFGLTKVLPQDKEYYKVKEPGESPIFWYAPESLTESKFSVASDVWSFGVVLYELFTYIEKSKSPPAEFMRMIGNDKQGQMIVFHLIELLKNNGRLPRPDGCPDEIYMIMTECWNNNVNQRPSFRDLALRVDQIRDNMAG
Scale: negative log10 of molar concentration, which is what pIC50 denotes.

Below, 6 compounds whose answers are already recorded.
1. Cc1n[nH]c(C)c1C(=O)N1CC[C@H](Oc2ccc(-c3ncnc(Nc4ccc(N5CCN(C6COC6)CC5)cc4)n3)cc2C#N)[C@H](F)C1 [Example 135] :: 6.67
2. N#Cc1cc(-c2ncnc(Nc3ccc(N4CCN(C5COC5)CC4)cc3)n2)ccc1OC1CCNCC1(F)F (racemic) [Example 148] :: 6.62
3. N#Cc1cc(-c2ncnc(Nc3ccc(N4CCN(C5COC5)CC4)cc3)n2)ccc1O[C@H]1CCN(C(=O)C2CCS(=O)(=O)N2)C[C@H]1F (some centres unmarked) [Example 118] :: 6.55
4. N#Cc1cc(-c2ncnc(Nc3ccc(N4CCN(C5COC5)CC4)cc3)n2)ccc1O[C@H]1CCN(C(=O)[C@H]2CNC(=O)C2)C[C@H]1F [Example 552] :: 6.25
5. N#Cc1cc(-c2ncnc(Nc3ccc(N4CCN(C5COC5)CC4)cc3)n2)ccc1O[C@H]1CCN(C(=O)C2(O)CC2)C[C@H]1F [Example 140] :: 6.47
6. C[C@H](O)C(=O)N1CC[C@H](Oc2ccc(-c3ncnc(Nc4ccc(C(=O)N5CCN(C)CC5)cc4)n3)cc2C#N)[C@H](F)C1 [Example 120] :: 6.17

For reference, reported pIC50 for C[C@H](O)C(=O)N1CC[C@H](Oc2ccc(-c3ncnc(Nc4ccc(N5CCN(C6COC6)CC5)c(C(F)F)c4)n3)cc2C#N)[C@H](F)C1 [Example 371] stands at 6.00

For reference, reported pIC50 for COc1cc(Nc2ncnc(-c3ccc(O[C@H]4CCN(C(=O)CC#N)C[C@H]4F)c(C#N)c3)n2)ccc1N1CCN(C2COC2)CC1 [Example 558] stands at 7.59

For reference, reported pIC50 for COCC(=O)N1CC[C@H](Oc2ccc(-c3ncnc(Nc4ccc(N5CCN(C6COC6)CC5)cc4)n3)cc2C#N)[C@H](F)C1 [Example 546] stands at 6.31

For reference, reported pIC50 for C[C@H](O)C(=O)N1CC[C@H](Oc2ccc(-c3ncnc(Nc4ccc(N5CCOC(C(N)=O)C5)cc4)n3)cc2C#N)[C@H](F)C1 (some centres unmarked) [Example 314] stands at 6.22

For reference, reported pIC50 for N#Cc1cc(-c2ncnc(Nc3ccc(N4CCN(C5COC5)CC4)cc3)n2)ccc1N1CCC2(CCO2)C1 (centres unmarked) [Example 207] stands at 6.59

For reference, reported pIC50 for N#Cc1cc(-c2ncnc(Nc3ccc(N4CCO[C@@H](CO)C4)cc3)n2)ccc1OC1CCN(C(=O)CO)CC1 [Example 227] stands at 6.48

---

Measured IC50 by item
target: TBK1 (Homo sapiens (Human), UniProt Q9UHD2); experiment: TBK1 TR-FRET enzymatic assay
Respond with the bare value in nM.

Below, 2 compounds whose answers are already recorded.
1. Cc1cc(-c2ncnc(Nc3ccc(N4CCN(C5COC5)CC4)cc3)n2)cc(C#N)c1O[C@H]1CCN(C(=O)[C@H](C)O)C[C@H]1F :: 16
2. Cc1cn[nH]c1C(=O)N1CC[C@H](Oc2ccc(-c3ncnc(Nc4ccc(N5CCN(C6COC6)CC5)cc4)n3)cc2C#N)[C@H](F)C1 :: 8

The compound "N#Cc1cc(-c2ncnc(Nc3ccc(N4CCN(C5COC5)CC4)cc3)n2)cc(F)c1O[C@H]1CCN(C(=O)CCO)C[C@H]1F" , tested on TBK1 (Homo sapiens (Human), UniProt Q9UHD2), showed IC50 of 7

The compound "C[C@@H]1C[C@@H](Oc2ccc(-c3ncnc(Nc4ccc(N5CCN(C6COC6)CC5)cc4)n3)cc2C#N)CCN1C(=O)CO" , tested on TBK1 (Homo sapiens (Human), UniProt Q9UHD2), showed IC50 of 15

The compound N#Cc1cc(-c2ncnc(Nc3ccc(N4CCN(C5COC5)CC4)cc3)n2)ccc1OC1CCCOC1 (stereo not drawn) , tested on TBK1 (Homo sapiens (Human), UniProt Q9UHD2), showed IC50 of 12

The compound C[C@H](O)C(=O)N1CC(F)C(Oc2ccc(-c3ncnc(Nc4ccc(N5CCN(C6COC6)CC5)cc4)n3)cc2C#N)C(C)(C)C1 (stereo partly drawn) , tested on TBK1 (Homo sapiens (Human), UniProt Q9UHD2), showed IC50 of 11

---

target: TBK1 (Homo sapiens (Human), UniProt Q9UHD2); assay: TBK1 TR-FRET enzymatic assay;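 also: phosphorylation of a biotinylated Ser/Thr peptide by purified full-length recombinant TBK1, read by TR-FRET after 240 min at 25 °C, IC50 is the geometric mean of at least four runs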
Structures can show the parent of a compound that is named as a salt.
Measured IC50 by item
Respond with the bare value in nM.

Below, 2 molecules whose answers are already recorded.
1. N#Cc1cc(-c2ncnc(Nc3ccc(N4CCN(C5COC5)CC4)cc3)n2)ccc1O[C@H]1CCN(C(=O)C2CCS(=O)(=O)N2)C[C@H]1F (stereo partly shown) :: 7
2. N#Cc1cc(-c2ncnc(Nc3ccc(N4CCN(C5COC5)CC4)cc3)n2)ccc1N1CC[C@@H](F)C1 :: 3

For reference, reported IC50 for "N#Cc1cc(-c2ncnc(Nc3ccc(N4CCN(C5COC5)CC4)c(OC(F)F)c3)n2)ccc1O[C@H]1CCN(C(=O)CO)C[C@H]1F" stands at 3

For reference, reported IC50 for N#Cc1cc(-c2ncnc(Nc3ccc(N4CCNCC4)cc3)n2)ccc1OC1CCOCC1 [Example 18, trifluoroacetic acid salt] stands at 1
